assay_setup: in water, 288 K
metric_name: solubility (mole fraction)

>>> df
                              smiles_record                 metric_name    result
0  C[n+]1ccn(CCOCCOCCn2cc[n+](C)c2)c1.F[P-](F)(F)(F)(F)F.F[P-](F)(F)(F)(F)F  solubility (mole fraction)  0.000197

###

assay_setup: in methanol, 288 K
metric_name: solubility (mole fraction)

>>> print(df.to_string())
                              smiles_record                 metric_name    result
0  C[n+]1ccn(CCOCCOCCn2cc[n+](C)c2)c1.F[P-](F)(F)(F)(F)F.F[P-](F)(F)(F)(F)F  solubility (mole fraction)  0.000231
